System: MDA-MB-435
Experiment: NCI tumour cell line growth inhibition, 48 h
Active and inactive are the calls of the source. Cut-off read from the data, not from the text of the source: active = GI50 up to about 1.1 µM and inactive = higher.
Choose the fitting class; nothing outside active, inactive is accepted.

Compound: CC1(C)[C@@H]2C[C@H]1c1cnc(-c3ccccn3)cc1[C@H]2C(O)[C@@H]1c2cc(-c3ccccn3)ncc2[C@H]2C[C@@H]1C2(C)C (stereo partly drawn)
Discrete Label: active
//
Compound: CC(C)N(c1cc2c(cc1F)c(=O)c(C(=O)O)cn2-c1ccc(N2CCN(C)CC2)cn1)C(C)C
Discrete Label: inactive
//
Compound: CC(=O)O[C@H]1C(=O)[C@@]2(C)[C@H]([C@H](OC(=O)c3ccccc3)[C@]3(O)C[C@H](OC(=O)[C@H](O)[C@@H](NC(=O)C(C)(O)C(C)O)c4ccccc4)C(C)=C1C3(C)C)[C@]1(OC(C)=O)CO[C@@H]1C[C@@H]2O (stereo partly drawn)
Discrete Label: active
//
Compound: CC1=C2CC3=C(C)C(=O)O[C@H]3C[C@@H](C)[C@@H]2CC1 [AMERICANOLIDE D]
Discrete Label: inactive

[in] Look up the recorded call for O=C(O)c1ccccc1/C=C1\Cc2cc3c(cc2C1=O)CCC3 in this test.
[out] inactive

[in] Look up the recorded call for CC(NC(=O)OC(C)(C)C)C(=O)NC(Cc1ccccc1)C(=O)NCC(=O)ON=C1CCCC1 (stereo not drawn) in this test.
[out] inactive

[in] Look up the recorded call for CC(C)(C)CN1[C@@H]2CCCC[C@H]2N(CC(C)(C)C)P1(=O)Cc1ccccc1 in this test.
[out] inactive

====

Tested on: OVCAR-3
Assay: NCI tumour cell line growth inhibition, 48 h
Calls of active or inactive are those of the source. No stated cut-off is given here; in the data, active = GI50 up to about 1.1 µM and inactive = higher.
Reported GI50 is given for each of the following molecules.

Molecule: COC(=O)C1(C)C=CC(=O)C2(C)C1C(O)C1OC3CC(c4ccoc4)C(C)=C3C1(C)C2CC(=O)O (configuration not stated)
GI50: > 100 µM (inactive)
--
Molecule: CC(=O)Nc1nc(O)c2nc(C=O)cnc2n1
GI50: > 100 µM (inactive)
--
Molecule: COC(C/C(=C/CO[Si](C(C)C)(C(C)C)C(C)C)C(=O)N(COCC[Si](C)(C)C)c1ccccc1I)OC
GI50: 17.8 µM (inactive)
--
Molecule: N#Cc1sc2c(c1OC(=O)c1ccccc1)c(=O)n(-c1ccccc1)c(=S)n2-c1ccccc1
GI50: 28.1 µM (inactive)
--
Molecule: O=c1[nH]nc(-c2ccccc2)n1/N=C/c1c[nH]c2ccccc12
GI50: > 100 µM (inactive)
--
Molecule: CCCC(=O)Nc1ncnc2c1ncn2C1OC2COP(=O)(O)OC2C1OC(=O)CCC (configuration not stated)
GI50: > 100 µM (inactive)

--- query ---
[in] Return GI50 for the following molecule: O=C(CNc1cccc([N+](=O)[O-])c1)Nn1c(-c2ccccc2)nc2ccccc2c1=O
[out] 2.38 µM (inactive)

====

System: SNB-75
Experiment: NCI tumour cell line growth inhibition, 48 h
Activity calls are given as the source filed them. Rule as the data show it: active = GI50 up to about 1.1 µM and inactive = higher.
Reported GI50 is given for each of the following molecules.

See these solved cases before continuing.
Molecule: COc1ccc(OC)c(/C=C/c2cnnc3ccccc23)c1
Measurement Label: GI50
Result: 4.19 µM (inactive)
//
Molecule: N#Cc1c(-c2ccc(Cl)cc2)cc(-c2ccc(Nc3ccnc4cc(C(F)(F)F)ccc34)cc2)[nH]c1=O
Measurement Label: GI50
Result: 11.7 µM (inactive)

[in] Return GI50 for the following molecule: O=c1[nH]c2ccccc2nc1CBr
[out] 12.8 µM (inactive)

[in] Return GI50 for the following molecule: Cc1ccc(S(=O)(=O)N/N=C(\c2nc3ccc([N+](=O)[O-])cc3nc2O)C(O)c2ccccc2Cl)cc1 (stereo unspecified)
[out] > 100 µM (inactive)

[in] Return GI50 for the following molecule: O=Cc1c[nH]c2c(=O)[nH]cnc12
[out] > 100 µM (inactive)

[in] Return GI50 for the following molecule: COC1(C)C(=O)N2C1N(C(=O)OCc1ccccc1)CC2(C)C (stereo unspecified)
[out] 44.9 µM (inactive)
